# Tested on: Proteus mirabilis
# measurement-notes: Antibacterial activity against Proteus mirabilis 7002 assessed as inhibition of swarming by plate swarm assay
# Assay type: functional, organism-based
Active and inactive are the calls of the source. The calls are words filed in the database; no cut-off is given here.
Field 'call' accepts active, inactive

- O=[N+]([O-])c1ccc([C@H](O)[C@H](O)CO)cc1: inactive
- O=[N+]([O-])c1ccc([C@@H](O)[C@H](O)CO)cc1: active
- O=[N+]([O-])c1ccc([C@@H](O)[C@@H](O)CO)cc1: active

Now turn to the next compound.
Qu. Per the assay record, what outcome was assigned to O=[N+]([O-])c1ccc([C@H](O)[C@@H](O)CO)cc1 ?
Ans. inactive

---

# Test system: Bacillus subtilis
# measurement-notes: Antibacterial activity against Bacillus subtilis NCIB 3610 DS1677 harboring marker-less hag mutant assessed as inhibition of surface colony-spreading at 75 ug/ml after 24 hrs relative to control
# Assay type: functional
# conditions: subsp. subtilis str. NCIB 3610 DS1677
Calls of active or inactive are those of the source. The rule behind the calls is not given here.
Outcome (select one): active, inactive

Example results:
- O=[N+]([O-])c1ccc([C@H](O)[C@H](O)CO)cc1: inactive
- O=[N+]([O-])c1ccc([C@H](O)[C@@H](O)CO)cc1: inactive
- O=[N+]([O-])c1ccc([C@@H](O)[C@@H](O)CO)cc1: active

From here, focus on the item given below.
Qu. // outcome(item) with item = O=[N+]([O-])c1ccc([C@@H](O)[C@H](O)CO)cc1
Ans. inactive

---

# Tested on: Bacillus anthracis
# measurement-notes: Antibacterial activity against Bacillus anthracis Sterne assessed as inhibition of surface colony-spreading after overnight incubation
# Assay type: functional, organism-based
reported-metric: IC50 (µM)
State just the number; it will be interpreted in µM.

Qu. Missing value: IC50, Bacillus anthracis, entry CS(=O)(=O)c1ccc([C@@H](O)[C@@H](O)CO)cc1 . Fill in?
Ans. 12
